Answer each item with its documented IC50.
Tested on: HL-60
Assay: Cytotoxicity against human HL60 cells assessed as reduction in cell viability measured after 48 hrs by CCK8 assay
Format: functional, cell-based
Settings: HL-60, 48 h, read-out: IC50

Study these solved cases before continuing.
INSERT INTO results (compound, experimental_result) VALUES
  ('O=C1c2ccccc2C(=O)c2c1[nH]c1ccccc21 [BENZOCARBAZOLEDIONE]', '> 50 µM'),
  ('O=C1c2ccccc2C(=O)c2c1sc1ccccc21', '> 50 µM');

From here, focus on the item given below.
Lookup: Entry O=C1c2ccccc2C(=O)c2c1[se]c1ccccc21 : reported IC50 = ?
Found: > 50 µM

Data credit: ChEMBL document CHEMBL4387767
